Test system: 621-102 (TSC2-deficient)
Test: relative viability vs DMSO; higher = less cytotoxic
Settings: 0.0001 µM; serum: 10% FBS; 72 h
Counter-ions that a name gives are not always drawn.
Below: a set of entries, each annotated with reported relative viability.

molecule	relative viability / %
O=c1cc(N2CCOCC2)oc2c(-c3cccc4c3sc3ccccc34)cccc12 [NU7441]	61.9
COc1ncc(-c2ccc3nccc(-c4ccnnc4)c3c2)cc1NS(=O)(=O)c1ccc(F)cc1F	80.7
O=C(NC[C@H](O)CO)c1ccncc1Nc1ccc(I)cc1F	100
Nc1ccn([C@@H]2O[C@H](CO)[C@@H](O)C2(F)F)c(=O)n1 [Gemcitabine Hydrochloride]	108
NC12CC3CC(CC(C3)C1)C2 [Amantadine HCl (Symmetrel)]	97.2
NC(=O)c1ccc(-c2nc(-c3ccccn3)c(-c3ccc4c(c3)OCO4)[nH]2)cc1	111
Nc1cc(C(F)(F)F)c(-c2cc(N3CCOCC3)nc(N3CCOCC3)n2)cn1 [BKM120 (NVP-BKM120)]	97
O=C1c2ccccc2C(=O)c2c1ccc(O)c2O [Alizarin]	108
CC(C)C[C@@H](C=O)NC(=O)[C@H](CC(C)C)NC(=O)[C@H](CC(C)C)NC(=O)OCc1ccccc1 [MG-132]	104
CS(=O)(=O)c1ccc(C(=O)Nc2ccc(Cl)c(-c3ccccn3)c2)c(Cl)c1 [GDC-0449 (Vismodegib)]	103
O=C(Nc1c[nH]nc1-c1nc2ccc(CN3CCOCC3)cc2[nH]1)NC1CC1 [AT9283]	94.6
CC(C)(C)c1cc(C(C)(C)C)c(NC(=O)c2c[nH]c3ccccc3c2=O)cc1O [VX-770]	97.8
CC1(C)CC(=O)c2c(C(F)(F)F)nn(-c3ccc(C(N)=O)c(N[C@H]4CC[C@H](O)CC4)c3)c2C1 [SNX-2112]	60.2
O=C(CN1C(=O)C2(CCCC2)NC[C@H]1c1cc(F)cc(F)c1)Nc1ccc2c(c1)C[C@@]1(C2)C(=O)Nc2ncccc21 [MK 3207 hydrochloride]	114
Nc1nc(Nc2ccc(S(N)(=O)=O)cc2)nn1C(=O)c1c(F)cccc1F	107
CC(C)(C#N)c1cc(Cn2cncn2)cc(C(C)(C)C#N)c1 [Anastrozole (Arimidex)]	125
CCN1CCCC1CNC(=O)c1cc(S(=O)(=O)CC)c(N)cc1OC (stereo not drawn) [Amisulpride]	111
O=c1cc(-c2ccc(O)cc2)oc2cc(O)cc(O)c12 [Apigenin]	90.7

----------
System: 621-103 (TSC2-rescued)
Test: relative viability vs DMSO; higher = less cytotoxic
Conditions: 1 µM; serum: 10% FBS; 72 h
Where a name gives a salt, the structure may show the parent alone.
Below: a set of entries, each annotated with reported relative viability.

molecule	measurement_units	relative viability
CCCCCCCCCCCCCCCC(=O)OC[C@H](O)[C@H]1OC(=O)C(O)=C1O [L-Ascorbyl 6-palmitate]	%	97.4
S=C(NCc1ccc2c(c1)OCO2)N1CCN(c2ncnc3c2oc2ccccc23)CC1 [MP-470]	%	106
Cc1ccc(NC(=O)c2ccc(CN3CCN(C)CC3)cc2)cc1Nc1nccc(-c2cccnc2)n1 [Imatinib Mesylate]	%	98.3
Nc1nc(F)nc2c1ncn2[C@@H]1O[C@H](COP(=O)(O)O)[C@@H](O)[C@@H]1O [Fludarabine Phosphate]	%	100
CC[C@@H]1C(=O)N(C)c2cnc(Nc3ccc(C(=O)NC4CCN(C)CC4)cc3OC)nc2N1C1CCCC1 [BI 2536]	%	50.6
Nc1nc(=O)n([C@@H]2CS[C@H](CO)O2)cc1F [Emtricitabine]	%	100
COc1cccc2c1C(=O)c1c(O)c3c(c(O)c1C2=O)C[C@@](O)(C(=O)CO)C[C@@H]3O[C@H]1C[C@H](N)[C@H](O)[C@H](C)O1 [Adriamycin]	%	13
Nc1[nH]cnc2ncnc1-2 [Adenine]	%	105
FC(F)(F)c1ccc(Nc2nc3ccc(Oc4ccnc(-c5ncc(C(F)(F)F)[nH]5)c4)cc3[nH]2)cc1 [Raf265 derivative]	%	101
CC(C)Cc1ccc(C(C)C(=O)O)cc1 (stereo unspecified) [Ibuprofen]	%	98.2
C=CC(=O)Nc1cccc(Sc2nc(Nc3ccc(N4CCN(C)CC4)cc3)ncc2Cl)c1 [WZ8040]	%	101
CC(C)(C)NC(=O)[C@H]1CC[C@H]2[C@@H]3CC[C@H]4NC(=O)C=C[C@]4(C)[C@H]3CC[C@]12C [Finasteride]	%	101
COC(=O)c1ccc2c(C(=Nc3ccc(N(C)C(=O)CN4CCN(C)CC4)cc3)c3ccccc3)c(O)[nH]c2c1 [BIBF1120 (Vargatef)]	%	96.9
Cc1cc(C(C)(C)C)c(O)c(C)c1CC1=NCCN1 [Oxymetazoline HCl]	%	103
COC1=C2C[C@@H](C)C[C@H](OC)[C@H](O)[C@@H](C)/C=C(\C)[C@H](OC(N)=O)[C@@H](OC)/C=C\C=C(/C)C(=O)NC(=CC1=O)C2=O [Geldanamycin]	%	3.46
O=C(c1ccc(F)cc1)N1CCC[C@H](c2nc(-c3ccc(F)cc3)no2)C1	%	105

----------
Below: a set of entries, each annotated with reported relative viability.
System: 621-102 (TSC2-deficient)
Experiment: relative viability vs DMSO; higher = less cytotoxic
Conditions: 0.001 µM; serum: 10% FBS; 72 h
Structures can show the parent of a compound that is named as a salt.
property_measured: relative viability (%)

compound	property_measured	recorded_measurement
Cc1cn([C@H]2C=C[C@@H](CO)O2)c(=O)[nH]c1=O	relative viability	76.7
NC(=O)c1cccc2[nH]c(-c3ccc(C4CCCN4)cc3F)nc12 (stereo not drawn)	relative viability	103
Nc1ccccc1NC(=O)c1ccc(CNC(=O)OCc2cccnc2)cc1	relative viability	109
Cc1ccc(C(=O)Nc2cccc(C(F)(F)F)c2)cc1Nc1nc(-c2cccnc2)nc2c1cnn2C	relative viability	108
Cc1cc(Nc2nc(N[C@@H](C)c3ccc(F)cc3)c(C#N)cc2F)n[nH]1	relative viability	107
FC(F)(F)c1ccc(/C=C/c2nc(COc3ccc(CCCCn4ccnn4)cc3)co2)cc1	relative viability	105
CN(C)c1ccc(-c2nc3ncc(Cl)c(N4CCN(CC(=O)Nc5nccs5)CC4)c3[nH]2)cc1	relative viability	96.7
Cc1ccc(NC(=O)c2cccc(N(C)C)c2)cc1NC(=O)c1ccc(O)cc1	relative viability	102
CCOc1cc2ncc(C#N)c(Nc3ccc(F)c(Cl)c3)c2cc1NC(=O)/C=C/CN(C)C	relative viability	107
COc1ccnc2[nH]cc(C(=O)C(=O)N3CCN(C(=O)c4ccccc4)C[C@H]3C)c12	relative viability	106
CCCN[C@H]1CCc2nc(N)sc2C1 [Pramipexole dihydrochloride monohydrate]	relative viability	84.5
CC[N+](CC)(CC)CCOc1cccc(OCC[N+](CC)(CC)CC)c1OCC[N+](CC)(CC)CC [Gallamine triethiodide (Flaxedil)]	relative viability	109
CNCCCC12CCC(c3ccccc31)c1ccccc12 [Maprotiline HCl]	relative viability	114
COc1cc(OC)c(/C=C/S(=O)(=O)Cc2ccc(OC)c(NCC(=O)O)c2)c(OC)c1	relative viability	109
NC(=O)c1ccc(N(C(N)=O)c2c(F)cccc2F)nc1-c1ccc(F)cc1F	relative viability	109
Nc1nc(Nc2ccc(S(N)(=O)=O)cc2)nn1C(=O)c1c(F)cccc1F	relative viability	102
COc1cc2nccc(Oc3ccc(NC(=O)Nc4cc(C)on4)c(Cl)c3)c2cc1OC	relative viability	96.6
Nc1nc(F)nc2c1ncn2[C@@H]1O[C@H](CO)[C@@H](O)[C@@H]1O	relative viability	92

----------
Tested on: 621-102 (TSC2-deficient)
Experiment: relative viability vs DMSO (fraction); higher = less cytotoxic
Conditions: 1.6 nM; serum: 0.1% FBS; 72 h
Where a name gives a salt, the structure may show the parent alone.
Classify: 1 (yes) when relative viability is strictly less than 0.9; 0 (no) when relative viability is not.

molecule	assay_system	class_assignment
O=C(Nc1c[nH]nc1-c1nc2ccc(CN3CCOCC3)cc2[nH]1)NC1CC1	621-102 (TSC2-deficient)	0 (no)
CCC[C@H](NC(=O)/C(C#N)=C/c1cccc(Br)n1)c1ccccc1	621-102 (TSC2-deficient)	0 (no)
Cc1cc(Nc2cc(CN3CCOCC3)c3nc(C)c(Cc4ccc(Cl)cc4F)n3n2)n[nH]1	621-102 (TSC2-deficient)	0 (no)
COC1=CC(c2cc3ccccc3[nH]2)=N/C1=C\c1[nH]c(C)cc1C [Obatoclax Mesylate]	621-102 (TSC2-deficient)	0 (no)
CC[C@@]1(O)C(=O)OCc2c1cc1n(c2=O)Cc2cc3c(CN(C)C)c(O)ccc3nc2-1 [Topotecan Hydrochloride]	621-102 (TSC2-deficient)	0 (no)
CN1CC[C@H](c2c(O)cc(O)c3c(=O)cc(-c4ccccc4Cl)oc23)[C@H](O)C1	621-102 (TSC2-deficient)	0 (no)
CO[C@@H](C(=O)N1Cc2[nH]nc(NC(=O)c3ccc(N4CCN(C)CC4)cc3)c2C1)c1ccccc1	621-102 (TSC2-deficient)	0 (no)
CC(C)C[C@@H](C=O)NC(=O)[C@H](CC(C)C)NC(=O)[C@H](CC(C)C)NC(=O)OCc1ccccc1	621-102 (TSC2-deficient)	1 (yes)
CO[C@H]1C[C@@H]2CC[C@@H](C)[C@@](O)(O2)C(=O)C(=O)N2CCCC[C@H]2C(=O)O[C@H]([C@H](C)C[C@@H]2CC[C@@H](O)[C@H](OC)C2)CC(=O)[C@H](C)/C=C(\C)[C@@H](O)[C@@H](OC)C(=O)[C@H](C)C[C@H](C)/C=C/C=C/C=C/1C [Rapamycin(Sirolimus)]	621-102 (TSC2-deficient)	1 (yes)
COc1cccc2c1C(=O)c1c(O)c3c(c(O)c1C2=O)C[C@@](O)(C(=O)CO)C[C@@H]3O[C@H]1C[C@H](N)[C@H](O)[C@H](C)O1	621-102 (TSC2-deficient)	1 (yes)
Cn1cncc1[C@@](N)(c1ccc(Cl)cc1)c1ccc2c(c1)c(-c1cccc(Cl)c1)cc(=O)n2C	621-102 (TSC2-deficient)	1 (yes)
Cc1ccc(C(=O)Nc2cccc(C(F)(F)F)c2)cc1Nc1nc(-c2cccnc2)nc2c1cnn2C	621-102 (TSC2-deficient)	0 (no)
Cn1c(Nc2ccc(C(F)(F)F)cc2)nc2cc(Oc3ccnc(-c4ncc(C(F)(F)F)[nH]4)c3)ccc21	621-102 (TSC2-deficient)	0 (no)
CC1=NN(c2ccc(C)c(C)c2)C(=O)/C1=N\Nc1cccc(-c2cccc(C(=O)O)c2)c1O	621-102 (TSC2-deficient)	0 (no)
CO[C@H]1C[C@@H]2CC[C@@H](C)[C@@](O)(O2)C(=O)C(=O)N2CCCC[C@H]2C(=O)O[C@H]([C@H](C)C[C@@H]2CC[C@@H](OCCO)[C@H](OC)C2)CC(=O)[C@H](C)/C=C(\C)[C@@H](O)[C@@H](OC)C(=O)[C@H](C)C[C@H](C)/C=C/C=C/C=C/1C [Everolimus(RAD001)]	621-102 (TSC2-deficient)	1 (yes)
